Source listed as patent US20150272939A1.

# ASSAY_SYSTEM: JARID1B (Homo sapiens)
# Construct: The FLAG tagged full length JARID1B enzyme was expressed in Sf21 insect cells using FLAG-JARID1B baculoviruses; FLAG (N); made in house; host or cells: Sf21 insect cells (baculovirus)
# Sequence (Q9UGL1 whole entry): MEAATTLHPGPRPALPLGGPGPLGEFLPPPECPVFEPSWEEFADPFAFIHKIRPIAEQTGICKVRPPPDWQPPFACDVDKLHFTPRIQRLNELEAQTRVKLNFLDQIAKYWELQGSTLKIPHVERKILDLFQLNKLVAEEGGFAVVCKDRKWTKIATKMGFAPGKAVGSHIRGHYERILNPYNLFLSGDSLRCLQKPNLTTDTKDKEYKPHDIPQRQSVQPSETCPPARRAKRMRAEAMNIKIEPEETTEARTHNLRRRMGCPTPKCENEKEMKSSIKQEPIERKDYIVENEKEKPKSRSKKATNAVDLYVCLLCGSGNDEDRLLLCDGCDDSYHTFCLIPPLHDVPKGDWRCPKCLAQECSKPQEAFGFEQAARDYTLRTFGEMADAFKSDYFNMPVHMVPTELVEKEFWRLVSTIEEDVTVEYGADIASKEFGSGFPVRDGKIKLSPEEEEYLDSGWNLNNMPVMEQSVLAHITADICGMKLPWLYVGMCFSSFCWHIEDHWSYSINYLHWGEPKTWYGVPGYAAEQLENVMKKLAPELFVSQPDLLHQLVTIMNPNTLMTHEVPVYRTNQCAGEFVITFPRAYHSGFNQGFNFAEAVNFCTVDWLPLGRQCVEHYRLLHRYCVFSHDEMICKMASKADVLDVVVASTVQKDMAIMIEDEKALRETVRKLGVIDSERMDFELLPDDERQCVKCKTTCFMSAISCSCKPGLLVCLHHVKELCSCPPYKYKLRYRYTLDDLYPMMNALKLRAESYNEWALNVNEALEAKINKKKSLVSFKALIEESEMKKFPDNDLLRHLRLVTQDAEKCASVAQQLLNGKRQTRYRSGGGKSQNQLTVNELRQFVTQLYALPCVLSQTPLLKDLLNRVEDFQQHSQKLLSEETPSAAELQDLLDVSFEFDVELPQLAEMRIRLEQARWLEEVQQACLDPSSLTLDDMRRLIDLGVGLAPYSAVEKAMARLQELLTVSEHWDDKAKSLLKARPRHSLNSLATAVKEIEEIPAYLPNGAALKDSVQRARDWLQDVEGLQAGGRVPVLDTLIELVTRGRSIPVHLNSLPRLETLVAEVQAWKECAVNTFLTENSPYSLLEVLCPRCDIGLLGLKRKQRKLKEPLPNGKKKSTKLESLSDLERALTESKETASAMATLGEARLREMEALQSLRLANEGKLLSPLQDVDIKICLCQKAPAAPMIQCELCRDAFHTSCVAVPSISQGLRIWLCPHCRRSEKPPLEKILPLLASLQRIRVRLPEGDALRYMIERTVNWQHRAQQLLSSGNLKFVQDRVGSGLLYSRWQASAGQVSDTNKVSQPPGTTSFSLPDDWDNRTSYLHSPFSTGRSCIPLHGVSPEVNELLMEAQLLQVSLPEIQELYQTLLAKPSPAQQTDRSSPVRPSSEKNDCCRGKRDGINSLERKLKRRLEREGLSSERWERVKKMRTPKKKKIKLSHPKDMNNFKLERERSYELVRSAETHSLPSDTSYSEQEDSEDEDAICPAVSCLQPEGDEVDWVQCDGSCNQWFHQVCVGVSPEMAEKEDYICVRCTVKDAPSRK
# RUN_DESCRIPTION: FLAG-JARID1B histone demethylase assay with AlphaScreen detection (HTS and dose response);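 note: FLAG-tagged JARID1B at 4 nM acting on a biotinylated H3K4me3 peptide, demethylation read by AlphaScreen luminescence, with hits checked against bio-H3K4me2 without enzyme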;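 note: compound tested at 20 µM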
# Type: biochemical
# CONDITION_PARAMETERS: assay signal minus artifact signal
Where a name gives a salt, the structure may show the parent alone.
Measured Assay − Artifact Signal (percent) determines class: group A: < 20%; group B: ≥ 20% and < 40%; group C: ≥ 40%

| COMPOUND | CLASS_LABEL |
| --- | --- |
| CC(C)NNC(=O)c1ccncc1 [YU034066, IPRONIAZID SULFATE, reference compound] | group C |
| S=C(Nc1cccc(Cl)c1Cl)Nn1cnnc1 [YU149002] | group A |
| O=C1C=CC(=O)[C@@H](Br)[C@@H]1Br [YU221139] | group B |
| C=CCn1c(Cc2nc3ccccc3[nH]2)n[nH]c1=S [YU147658] | group B |
| Cn1c(S)nnc1CSCc1ccc(F)cc1 [YU147498] | group B |
| COC1=CC(=O)C(O)=CC1=CC=Cc1ccccc1 (single isomer, unassigned) [YU155007, OBTUSAQUINONE, reference compound] | group C |
| CCCCC(=O)Nc1ccc(N(C)CCc2c(C)nn(C)c2C)c(C(=O)O)c1 [YU208232] | group A |
| COc1ccc2c(CCN)c[nH]c2c1.Cl [YU145407] | group A |
| O=Cc1ccc(-c2ccc(S(=O)(=O)O)cc2)o1 [YU146454] | group C |
| COc1cc(C=O)ccc1OC(=O)c1ccncc1 [YU146698] | group C |
| C#CCOc1c(Cl)cc(C(=S)N2CCOCC2)cc1OC [YU153110] | group B |
| COc1ccc(OC)c(Nc2nc(=O)c3cccnc3s2)c1 [YU151897] | group C |
| CC(=O)Oc1c([N+](=O)[O-])cc2c(c1Br)CCCC2 [YU151714] | group A |
| c1cncc(-c2nn3c(Cn4cnc5ccccc54)nnc3s2)c1 [YU154091] | group B |
| COc1cc(C=C[N+](=O)[O-])ccc1OCc1cccc(C(=O)O)c1 (single isomer, unassigned) [YU153545] | group A |
| N#CC(C#N)=Cc1cc(O)c(O)c(O)c1 [YU154832, TYRPHOSTIN 25, reference compound] | group A |
| Cc1cc(C)nc(N(C#N)C(=S)N(C)C)n1 [YU145653] | group B |
| Cc1ccc(C(=O)Nc2nnc(-c3ccncc3)s2)o1 [YU148889] | group A |
| CN1CCc2cccc3c2C1Cc1ccc(O)c(O)c1-3 (stereo not drawn) [YU033696, APOMORPHINE HYDROCHLORIDE, reference compound] | group C |
| O=c1c(O)c(-c2ccc(O)c(O)c2)oc2c(O)c(O)cc(O)c12 [YU155360, GOSSYPETIN, reference compound] | group A |
| O=S(=O)(NN1CCOCC1)c1ccc(Cl)cc1 [YU148050] | group A |
| Oc1cc(O)cc(/C=C/c2ccc(O)c(O)c2)c1 [YU154843, PICEATANNOL, reference compound] | group A |
| O=c1c2cc(O)c(O)cc2oc2cc(O)c([C@@H]3O[C@H](CO)[C@@H](O)[C@H](O)[C@H]3O)c(O)c12 [YU153356, MANGIFERIN, reference compound] | group B |
| O=c1c(-c2cc(O)c(O)c(O)c2)coc2cc(O)c(O)c(O)c12 [YU155411, IRIGENOL, reference compound] | group B |
| COc1ccc2nc(NCc3ccncc3)sc2c1 [YU147704] | group C |
| Oc1cc(O)c2c(c1)O[C@H](c1ccc(O)c(O)c1)[C@@H](O)C2 [YU033631, CIANIDANOL, reference compound] | group B |
| N#CC(=Cc1ccncc1)c1nc2ccccc2s1 [YU147088] | group C |
| C=CCn1c(-c2ccc([N+](=O)[O-])cc2)n[nH]c1=S [YU147005] | group B |
| O=C(NNC(=S)NCC1CCCO1)c1ccccn1 (stereo not drawn) [YU148374] | group C |
| CC(=O)NNC(=O)c1ccncc1 [YU129955] | group C |
| O=C(O)CC(CC(=O)Nc1cc(C(F)(F)F)ccc1N1CCOCC1)c1ccccc1 (stereo not drawn) [YU016748] | group A |
| CN(C)c1cccc2c(C=O)ccc(N(C)C)c12 [YU145980] | group B |
| O=C(O)c1cc(NCc2cc(O)ccc2O)ccc1O [YU154859, reference compound] | group C |
| O=C(O)c1cccc(NCc2ccncc2)c1 [YU145461] | group C |
| Cc1c2c(=O)n(-c3nc4ccccc4s3)[nH]c2cc(=O)n1CCN1CCOCC1 [YU172087] | group B |
